The reported measurements were obtained from patent US20180171001A1.

# Test target: Env of HIV-1 strain PVO.4 (HIV-1)
# Assay summary: cell-based or functional assay

Binder	Modifier	neutralization IC50 (µg/mL)
γ3κ18 (antibody, V domains shown) VH: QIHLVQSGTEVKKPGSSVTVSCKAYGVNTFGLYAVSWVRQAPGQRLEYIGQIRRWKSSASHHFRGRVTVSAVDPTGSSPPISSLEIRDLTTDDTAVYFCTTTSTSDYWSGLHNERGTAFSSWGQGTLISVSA VL: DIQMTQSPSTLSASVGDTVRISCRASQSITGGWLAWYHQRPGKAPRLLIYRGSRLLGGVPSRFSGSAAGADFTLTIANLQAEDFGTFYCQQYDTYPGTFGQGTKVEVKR	=	0.028
γ44κ11 (antibody, V domains shown) VH: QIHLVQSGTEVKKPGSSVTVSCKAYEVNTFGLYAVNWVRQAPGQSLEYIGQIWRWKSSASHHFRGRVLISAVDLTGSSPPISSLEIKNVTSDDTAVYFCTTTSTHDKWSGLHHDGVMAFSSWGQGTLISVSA VL: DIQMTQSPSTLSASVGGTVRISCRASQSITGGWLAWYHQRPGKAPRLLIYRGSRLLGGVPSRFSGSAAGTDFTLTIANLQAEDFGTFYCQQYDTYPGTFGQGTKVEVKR	>	15
γ15κ61 (antibody, V domains shown) VH: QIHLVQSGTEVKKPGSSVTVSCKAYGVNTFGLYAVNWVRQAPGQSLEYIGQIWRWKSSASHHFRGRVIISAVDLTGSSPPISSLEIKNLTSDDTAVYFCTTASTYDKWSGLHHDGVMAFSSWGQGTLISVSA VL: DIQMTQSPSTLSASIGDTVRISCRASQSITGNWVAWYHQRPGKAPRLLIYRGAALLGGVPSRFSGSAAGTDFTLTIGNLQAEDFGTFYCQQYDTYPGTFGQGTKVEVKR	=	1.23
γ52κ11 (antibody, V domains shown) VH: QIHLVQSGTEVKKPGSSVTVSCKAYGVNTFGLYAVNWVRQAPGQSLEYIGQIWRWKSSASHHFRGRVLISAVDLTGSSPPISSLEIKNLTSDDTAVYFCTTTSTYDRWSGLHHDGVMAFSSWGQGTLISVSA VL: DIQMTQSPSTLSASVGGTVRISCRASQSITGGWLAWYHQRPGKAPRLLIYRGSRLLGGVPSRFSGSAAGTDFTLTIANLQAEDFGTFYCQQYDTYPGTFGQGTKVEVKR	=	0.103
γ15κ11 (antibody, V domains shown) VH: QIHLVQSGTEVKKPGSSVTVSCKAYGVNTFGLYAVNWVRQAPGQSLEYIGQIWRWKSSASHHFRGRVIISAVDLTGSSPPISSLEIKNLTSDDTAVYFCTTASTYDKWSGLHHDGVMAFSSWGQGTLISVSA VL: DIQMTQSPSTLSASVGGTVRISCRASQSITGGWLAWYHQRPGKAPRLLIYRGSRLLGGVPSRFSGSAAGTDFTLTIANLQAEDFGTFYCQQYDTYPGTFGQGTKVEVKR	=	6.7
